src = PubChem BioAssay (NCI)

Assay notes: NCI Yeast Anticancer Drug Screen. Data for the wt1 strain (AID 149);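 further: 0% = growth of vehicle-treated wt1 cultures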
Condition parameters: S. cerevisiae wt1 strain (SPY 50644) growth inhibition; at 3.7 µM; hits give high values
This is part of a sample that, as a whole, favours compounds with a hit. Of some 79,000 tested, about 15% had one in any assay.
Endpoint: growth inhibition (%)

INSERT INTO assay_data (compound, unit_text, observed_value) VALUES
  ('CC[N+]1(C)CCC(O)(c2ccc(OC)cc2)C(C(=O)c2ccc(OC)cc2)C1 (stereo unspecified)', '%', -76),
  ('Cc1nc(Nc2ccccc2[N+](=O)[O-])sc1C(=O)CC(=O)C(=O)Nc1c(C(C)C)cccc1C(C)C', '%', 4),
  ('CCc1cc(O)c(Cl)c(C)c1Cl', '%', 21),
  ('O=[N+]([O-])c1cccc2nc3ccccc3c(NCCC[N+]3([O-])CCCCC3)c12', '%', 2),
  ('CCN(CC)CCNc1ccc([N+](=O)[O-])c2nc3ccccc3c(N)c12', '%', -7),
  ('Cc1nc2c(Br)cc(Br)cc2c(=O)n1-c1ccccc1NC1OCC(O)C(O)C1O (stereo unspecified)', '%', 3),
  ('CC[n+]1oc(C(=O)c2ccc(Cl)cc2)c(-c2ccccc2)c1-c1ccccc1.[Cl][Fe]([Cl])([Cl])[Cl]', '%', -1),
  ('Cc1ccc2c(c1)C1(SC(C)C(=O)N1c1ccc(Cl)cc1)C(=O)N2 (stereo unspecified)', '%', 5),
  ('CN(C)c1ccc2c(SCC(=O)OCC(=O)[C@@]3(O)CC[C@H]4[C@@H]5CCC6=CC(=O)C=C[C@]6(C)[C@H]5C(=O)C[C@@]43C)c3ccc(N(C)C)cc3nc2c1', '%', -16),
  ('O=C1OC(C2=CC(=O)c3ccccc3C2=O)C(Cl)=C1Cl (stereo unspecified)', '%', 9),
  ('O=[N+]([O-])c1cc(Cl)cnc1Br', '%', 4),
  ('Cc1sc2ccc3ccccc3c2[n+]1C', '%', -19),
  ('Cc1ccc(N=Nc2ccc(O)c(=O)cc2)cc1', '%', 25),
  ('CC(NCCN(C)C)C1CCC2C3CCc4cc(O)ccc4C3CCC12C (stereo unspecified)', '%', -1),
  ('OC1(c2ccccc2)CCCc2ccc(Cl)cc21 (stereo unspecified)', '%', -2),
  ('O=[N+]([O-])c1ccc(N/N=C/Cc2ccccc2)c([N+](=O)[O-])c1', '%', -2),
  ('CCCCc1nnc(NS(=O)(=O)c2ccc(C)cc2)s1', '%', -32),
  ('COc1cc([C@@H]2c3cc4c(cc3[C@H](OC3OC5COC(C(C)C)OC5C(O)C3O)C3COC(=O)[C@@H]32)OCO4)cc(OC)c1O (stereo partly specified)', '%', -31),
  ('O=C(c1ccc([N+](=O)[O-])cc1)C1N=NCC1c1ccccc1 (stereo unspecified)', '%', 1),
  ('CC1OC(O[C@H]2/C=C/C=C/C=C/C=C/C=C/C=C/C=C/[C@H](C)[C@@H](O)[C@@H](C)[C@H](C)OC(=O)C[C@H](O)C[C@H](O)CC[C@@H](O)[C@H](O)C[C@H](O)C[C@]3(O)C[C@H](O)[C@@H](C(=O)O)[C@H](C2)O3)C(O)C(N)C1O (stereo partly specified)', '%', 13),
  ('Cc1cc(S(=O)(=O)Nc2nnc3cnc4ccccc4n23)c(S)cc1Cl', '%', -3),
  ('CC(=O)OCC1OC2OC(=O)NC2C(OC(C)=O)C1OC(C)=O (stereo unspecified)', '%', -3),
  ('O=c1nc2n(Cc3ccccc3)c3ccccc3nc-2c(=O)[nH]1', '%', 4),
  ('Nc1ncnc2c1ncn2C1OC(CO)CC1O (stereo unspecified)', '%', -10),
  ('O=C(O)c1cc2ccccc2c2c1C(=O)c1ccccc1-2', '%', 16),
  ('CC(C)(C)[Si](C)(C)OCC1CCC(n2cnc3c(NC(=O)c4ccccc4)ncnc32)O1 (stereo unspecified)', '%', 0),
  ('COc1cccc2c1C(=O)c1c(O)c3c(c(O)c1C2=O)C[C@@](O)(C(C)=O)C[C@@H]3OC1CC(OC(C)=O)C(OC(C)=O)C(C)O1 (stereo partly specified)', '%', -43),
  ('CC1=C(SCc2ccccc2)C(=O)c2ccccc2C1=O', '%', -15),
  ('CC1=NOC(=O)/C1=C/c1ccc2c(c1)OCO2', '%', 0),
  ('CN(CCN(C)Cc1ccccc1)Cc1ccccc1', '%', -9),
  ('O=C1Nc2ccc(Br)cc2C1=Nc1ccc2c(c1)OCO2', '%', -3),
  ('CN1CCN(C(=O)/C=C/C(=O)c2ccccc2)CC1', '%', 12),
  ('C[CH2][Sn]([CH2]C)([O]C(=O)C(N)Cc1ccccc1)[O]C(=O)C(N)Cc1ccccc1 (stereo unspecified)', '%', 1),
  ('CCOC(=O)COc1c(OC)cc(C2C3=C(COC3=O)Oc3cc4c(cc32)OCO4)cc1OC (stereo unspecified)', '%', 2),
  ('Nc1n[n+]([O-])c2ccc(Cl)cc2[n+]1[O-]', '%', 13),
  ('COC1CCC(O)C(/C=C/[N+](=O)[O-])C1 (stereo unspecified)', '%', 18),
  ('CCOc1c(N=Nc2ccccc2OC)c(C)nn1C(=S)S', '%', 1),
  ('c1ccc(-c2cnc3ccccc3c2)cc1', '%', -8),
  ('COc1ccc(C2C3=C(COC3=O)OC(C)(C)Oc3cc4c(cc32)OCO4)cc1OC (stereo unspecified)', '%', 10),
  ('C[Si](C)(C)/C=C/CCNC(C#N)c1ccccc1 (stereo unspecified)', '%', -2),
  ('Cc1nc(-c2cc3cc([N+](=O)[O-])ccc3oc2=O)cs1', '%', 5);
